- system name: T1, human VTCN1 expressed on cells (293-VTCN1 cells; SKBR3, MX-1 and ZR-75-1 cells that express it naturally) (human, UniProt Q7Z7D3 25-282)
- T1 construct: The cDNA was bought from Origene
- T1 sequence: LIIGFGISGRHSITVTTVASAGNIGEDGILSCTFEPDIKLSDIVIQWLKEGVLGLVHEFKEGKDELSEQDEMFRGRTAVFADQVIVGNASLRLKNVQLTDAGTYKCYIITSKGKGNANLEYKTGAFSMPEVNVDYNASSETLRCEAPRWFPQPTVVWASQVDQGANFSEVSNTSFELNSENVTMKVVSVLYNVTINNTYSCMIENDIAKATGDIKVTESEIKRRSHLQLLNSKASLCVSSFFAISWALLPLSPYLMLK
- assay info: flow cytometry, antibody titration on SKBR3 cells (endogenous VTCN1)
reported metric: EC50
Could you write the number and then its unit?

Input line: May I ask what EC50 has been recorded for 16H12_60B4 (antibody, V domains shown, Fully human antibody) VH: QVQVVQSGAEVKKPGSSVKVSCKASGDTFSNYAISWVRQAPGQGLEWMGGIIPIFGITNYAQKFQGRVTIIADKSTRTAYMELSSLRSEDTAVYYCSRGGPYFDYWGQGILVTVSS VL: EIVMTQSPATLSVSPGERATLSCRASQSVSSNLAWYQQKPGQAPRLLIYGASTRATGIPARFSGSGSGTEFTLTISSLQSEDFAVYYCQQYKKWPFTFGPGTKVDIK ?
Output line: 4 nM
